Data origin: patent US5840684A

System: Staphylococcus aureus SA1199B
Assay type: cell-based
I'd be grateful if you could share measured MIC for these entries.
Please respond with the number in µg/mL and leave the unit unwritten.

The molecule listed as CNC(CC(C)C)C(=O)NC1C(=O)NC(CC(N)=O)C(=O)NC2C(=O)NC3C(=O)NC(C(=O)NC(C(=O)O)c4cc(O)cc(O)c4-c4cc3ccc4O)C(OC3CC(C)(N)C(O)C(C)O3)c3ccc(c(Cl)c3)Oc3cc2cc(c3OC2OC(CO)C(O)C(O)C2OC2CC(C)(NCc3ccc(S(=O)(=O)N4CCCC4)cc3)C(O)C(C)O2)Oc2ccc(cc2Cl)C1O (stereo not drawn) [Compound 174] shows MIC equal to 0.125

The molecule listed as CC#CCCCCCCCCCCNC1(C)CC(OC2C(Oc3c4cc5cc3Oc3ccc(cc3Cl)C(OC3CC(C)(N)C(O)C(C)O3)C3NC(=O)C(NC(=O)C5NC(=O)C(CC(N)=O)NC(=O)C(NC(=O)C(CC(C)C)NC)C(O)c5ccc(c(Cl)c5)O4)c4ccc(O)c(c4)-c4c(O)cc(O)cc4C(C(=O)O)NC3=O)OC(CO)C(O)C2O)OC(C)C1O (stereo not drawn) [Compound 199] shows MIC equal to 1

The molecule listed as CNC(CC(C)C)C(=O)NC1C(=O)NC(CC(N)=O)C(=O)NC2C(=O)NC3C(=O)NC(C(=O)NC(C(=O)O)c4cc(O)cc(O)c4-c4cc3ccc4O)C(OC3CC(C)(N)C(O)C(C)O3)c3ccc(c(Cl)c3)Oc3cc2cc(c3OC2OC(CO)C(O)C(O)C2OC2CC(C)(NCc3sccc3-c3cccs3)C(O)C(C)O2)Oc2ccc(cc2Cl)C1O (stereo not drawn) [Compound 238] shows MIC equal to 0.5

###

Test system: Staphylococcus aureus SA1199B
Type: cell-based
Description: The MIC's were determined using a standard broth micro-dilution assay.
PROPERTY_NAME: MIC

The compound listed as CC(C)CC(C(=O)NC1C(=O)NC(CC(N)=O)C(=O)NC2C(=O)NC3C(=O)NC(C(=O)NC(C(=O)O)c4cc(O)cc(O)c4-c4cc3ccc4O)C(OC3CC(C)(N)C(O)C(C)O3)c3ccc(c(Cl)c3)Oc3cc2cc(c3OC2OC(CO)C(O)C(O)C2OC2CC(C)(NCc3c4ccccc4cc4ccccc34)C(O)C(C)O2)Oc2ccc(cc2Cl)C1O)N(C)Cc1c2ccccc2cc2ccccc12 (stereo not drawn) [Compound 284] shows MIC equal to 4 µg/mL

The compound listed as CC(C)CC(C(=O)NC1C(=O)NC(CC(N)=O)C(=O)NC2C(=O)NC3C(=O)NC(C(=O)NC(C(=O)O)c4cc(O)cc(O)c4-c4cc3ccc4O)C(OC3CC(C)(N)C(O)C(C)O3)c3ccc(c(Cl)c3)Oc3cc2cc(c3OC2OC(CO)C(O)C(O)C2OC2CC(C)(N)C(O)C(C)O2)Oc2ccc(cc2Cl)C1O)N(C)Cc1ccc(-c2ccc(Cl)cc2)cc1.O=C(O)C(F)(F)F (stereo not drawn) [Compound 252] shows MIC equal to ≤ 0.06 µg/mL

The compound listed as CNC(CC(C)C)C(=O)NC1C(=O)NC(CC(N)=O)C(=O)NC2C(=O)NC3C(=O)NC(C(=O)NC(C(=O)O)c4cc(O)cc(O)c4-c4cc3ccc4O)C(OC3CC(C)(N)C(O)C(C)O3)c3ccc(c(Cl)c3)Oc3cc2cc(c3OC2OC(CO)C(O)C(O)C2OC2CC(C)(NCc3ccc(Nc4ccccc4)cc3)C(O)C(C)O2)Oc2ccc(cc2Cl)C1O (stereo not drawn) [Compound 160] shows MIC equal to ≤ 0.06 µg/mL

The compound listed as CCCCCCCCCCCCOc1ccc(CNC2(C)CC(OC3C(Oc4c5cc6cc4Oc4ccc(cc4Cl)C(OC4CC(C)(N)C(O)C(C)O4)C4NC(=O)C(NC(=O)C6NC(=O)C(CC(N)=O)NC(=O)C(NC(=O)C(CC(C)C)NC)C(O)c6ccc(c(Cl)c6)O5)c5ccc(O)c(c5)-c5c(O)cc(O)cc5C(C(=O)O)NC4=O)OC(CO)C(O)C3O)OC(C)C2O)cc1 (stereo not drawn) [Compound 10] shows MIC equal to 8 µg/mL

The compound listed as CNC(CC(C)C)C(=O)NC1C(=O)NC(CC(N)=O)C(=O)NC2C(=O)NC3C(=O)NC(C(=O)NC(C(=O)O)c4cc(O)cc(O)c4-c4cc3ccc4O)C(OC3CC(C)(N)C(O)C(C)O3)c3ccc(c(Cl)c3)Oc3cc2cc(c3OC2OC(CO)C(O)C(O)C2OC2CC(C)(NCc3ccc(OCCCc4ccccc4)cc3)C(O)C(C)O2)Oc2ccc(cc2Cl)C1O (stereo not drawn) [Compound 223] shows MIC equal to 1 µg/mL

The compound listed as CCCOC(c1ccccc1)c1ccc(CNC2(C)CC(OC3C(Oc4c5cc6cc4Oc4ccc(cc4Cl)C(OC4CC(C)(N)C(O)C(C)O4)C4NC(=O)C(NC(=O)C6NC(=O)C(CC(N)=O)NC(=O)C(NC(=O)C(CC(C)C)NC)C(O)c6ccc(c(Cl)c6)O5)c5ccc(O)c(c5)-c5c(O)cc(O)cc5C(C(=O)O)NC4=O)OC(CO)C(O)C3O)OC(C)C2O)cc1 (stereo not drawn) [Compound 128] shows MIC equal to 2 µg/mL

###

System: Staphylococcus aureus S13E
Format: cell-based
Flag rule - MIC less than 1 µg/mL flags met; the remaining entries get not met.

Prompt: Does CNC(CC(C)C)C(=O)NC1C(=O)NC(CC(N)=O)C(=O)NC2C(=O)NC3C(=O)NC(C(=O)NC(C(=O)O)c4cc(O)cc(O)c4-c4cc3ccc4O)C(OC3CC(C)(NCc4ccc(C(F)(F)F)cc4)C(O)C(C)O3)c3ccc(c(Cl)c3)Oc3cc2cc(c3OC2OC(CO)C(O)C(O)C2OC2CC(C)(NCc3ccc(C(F)(F)F)cc3)C(O)C(C)O2)Oc2ccc(cc2Cl)C1O (centres unmarked) [Compound 272] have MIC strictly under 1 µg/mL?
Completion: met

Prompt: Does CNC(CC(C)C)C(=O)NC1C(=O)NC(CC(N)=O)C(=O)NC2C(=O)NC3C(=O)NC(C(=O)NC(C(=O)O)c4cc(O)cc(O)c4-c4cc3ccc4O)C(OC3CC(C)(N)C(O)C(C)O3)c3ccc(c(Cl)c3)Oc3cc2cc(c3OC2OC(CO)C(O)C(O)C2OC2CC(C)(NCc3ccc(-c4ccc(OC)c(OC)c4)cc3)C(O)C(C)O2)Oc2ccc(cc2Cl)C1O (centres unmarked) [Compound 215] have MIC strictly under 1 µg/mL?
Completion: not met

Prompt: Does CNC(CC(C)C)C(=O)NC1C(=O)NC(CC(N)=O)C(=O)NC2C(=O)NC3C(=O)NC(C(=O)NC(C(=O)O)c4cc(O)cc(O)c4-c4cc3ccc4O)C(OC3CC(C)(N)C(O)C(C)O3)c3ccc(c(Cl)c3)Oc3cc2cc(c3OC2OC(CO)C(O)C(O)C2OC2CC(C)(NCc3ccc(OCCCc4ccccc4)cc3)C(O)C(C)O2)Oc2ccc(cc2Cl)C1O (centres unmarked) [Compound 223] have MIC strictly under 1 µg/mL?
Completion: met

Prompt: Does CC(C)CC(C(=O)NC1C(=O)NC(CC(N)=O)C(=O)NC2C(=O)NC3C(=O)NC(C(=O)NC(C(=O)O)c4cc(O)cc(O)c4-c4cc3ccc4O)C(OC3CC(C)(N)C(O)C(C)O3)c3ccc(c(Cl)c3)Oc3cc2cc(c3OC2OC(CO)C(O)C(O)C2OC2CC(C)(NCc3ccncc3)C(O)C(C)O2)Oc2ccc(cc2Cl)C1O)N(C)Cc1ccncc1 (centres unmarked) [Compound 274] have MIC strictly under 1 µg/mL?
Completion: not met

Prompt: Does CCCCCCCCCOc1ccc(CNC2(C)CC(OC3C(Oc4c5cc6cc4Oc4ccc(cc4Cl)C(OC4CC(C)(N)C(O)C(C)O4)C4NC(=O)C(NC(=O)C6NC(=O)C(CC(N)=O)NC(=O)C(NC(=O)C(CC(C)C)NC)C(O)c6ccc(c(Cl)c6)O5)c5ccc(O)c(c5)-c5c(O)cc(O)cc5C(C(=O)O)NC4=O)OC(CO)C(O)C3O)OC(C)C2O)cc1 (centres unmarked) [Compound 8] have MIC strictly under 1 µg/mL?
Completion: not met

Prompt: Does CNC(CC(C)C)C(=O)NC1C(=O)NC(CC(N)=O)C(=O)NC2C(=O)NC3C(=O)NC(C(=O)NC(C(=O)O)c4cc(O)cc(O)c4-c4cc3ccc4O)C(OC3CC(C)(N)C(O)C(C)O3)c3ccc(c(Cl)c3)Oc3cc2cc(c3OC2OC(CO)C(O)C(O)C2OC2CC(C)(NCc3ccc(S(=O)(=O)N4CCCC4)cc3)C(O)C(C)O2)Oc2ccc(cc2Cl)C1O (centres unmarked) [Compound 174] have MIC strictly under 1 µg/mL?
Completion: met

Prompt: Does CC(C)CC(C(=O)NC1C(=O)NC(CC(N)=O)C(=O)NC2C(=O)NC3C(=O)NC(C(=O)NC(C(=O)O)c4cc(O)cc(O)c4-c4cc3ccc4O)C(OC3CC(C)(N)C(O)C(C)O3)c3ccc(c(Cl)c3)Oc3cc2cc(c3OC2OC(CO)C(O)C(O)C2OC2CC(C)(NCc3ccc(-c4ccc(Cl)cc4)cc3)C(O)C(C)O2)Oc2ccc(cc2Cl)C1O)N(C)Cc1ccc(-c2ccc(Cl)cc2)cc1.O=C(O)C(F)(F)F (centres unmarked) [Compound 253] have MIC strictly under 1 µg/mL?
Completion: not met

Prompt: Does CNC(CC(C)C)C(=O)NC1C(=O)NC(CC(N)=O)C(=O)NC2C(=O)NC3C(=O)NC(C(=O)NC(C(=O)O)c4cc(O)cc(O)c4-c4cc3ccc4O)C(O)c3ccc(c(Cl)c3)Oc3cc2cc(c3OC2OC(CO)C(O)C(O)C2OC2CC(C)(NCc3cccc4ccccc34)C(O)C(C)O2)Oc2ccc(cc2Cl)C1O (centres unmarked) [Compound 180] have MIC strictly under 1 µg/mL?
Completion: met

Prompt: Does CN[C@H](CC(C)C)C(=O)N[C@H]1C(=O)N[C@@H](CC(N)=O)C(=O)N[C@H]2C(=O)N[C@H]3C(=O)N[C@H](C(=O)N[C@H](C(=O)O)c4cc(O)cc(O)c4-c4cc3ccc4O)[C@H](O[C@H]3C[C@](C)(N)[C@@H](O)[C@H](C)O3)c3ccc(cc3)Oc3cc2cc(c3O[C@@H]2O[C@H](CO)[C@@H](O)[C@H](O)[C@H]2O[C@H]2C[C@](C)(N)[C@@H](O)[C@H](C)O2)Oc2ccc(cc2Cl)[C@H]1O [Compound A82846A, A82846A, reference compound] have MIC strictly under 1 µg/mL?
Completion: met
